Tested on: mutant (SAm1-201) of MRSA2007-13
Experiment summary: drug sensitivity test (disk method), mutant SAm1-201
Type: cell-based, methicillin-resistant Staphylococcus aureus
Measurement parameters: MRSA2007-13 SAm1-201; number in brackets; 37° C., 24 hours
Measured attribute: diameter of inhibitory zone, SAm1-201

Example entries and their recorded answers appear below.
>  <Compound>
Cc1onc(-c2ccccc2)c1C(=O)N[C@@H]1C(=O)N2[C@@H]1SC(C)(C)[C@@H]2C(=O)O [MPIPC, oxacillin]

>  <Measured attribute>
diameter of inhibitory zone, SAm1-201

>  <Result>
35 millimeters

$$$$
>  <Compound>
C[C@@H](O)[C@H]1C(=O)N2C(C(=O)O)=C([C@H]3CCCO3)S[C@H]12 [FRPM, faropenem]

>  <Measured attribute>
diameter of inhibitory zone, SAm1-201

>  <Result>
≥ 50 millimeters

$$$$
>  <Compound>
CC1(C)S[C@@H]2[C@H](NC(=O)[C@H](N)c3ccc(O)cc3)C(=O)N2[C@H]1C(=O)O [AMPC, amoxicillin]

>  <Measured attribute>
diameter of inhibitory zone, SAm1-201

>  <Result>
34 millimeters

$$$$

For each of the compounds below, note its diameter of inhibitory zone, SAm1-201.
1. CC1=C(C(=O)O)N2C(=O)[C@@H](NC(=O)[C@H](N)c3ccccc3)[C@H]2SC1 [CEX, cephalexin]
2. C[C@@H](O)[C@H]1C(=O)N2C(C(=O)O)=C(SCCN=CN)C[C@H]12 [IPM, imipenem]
3. COCC1=C(C(=O)O)N2C(=O)[C@@H](NC(=O)/C(=N\OC)c3csc(N)n3)[C@H]2SC1 [CPDX, cefpodoxime]
4. C[C@@H](O)[C@H]1C(=O)N2C(C(=O)O)=C(S[C@@H]3CN[C@H](C(=O)N(C)C)C3)[C@H](C)[C@H]12 [MEPE, meropenem]

Completion:
1: 29 millimeters; 2: 44 millimeters; 3: 28 millimeters; 4: 28 millimeters
